Test system: 422866-222-R5-J1-PDC spheroids with HUVEC/MSC, viability
Experiment: Anticancer human tumor 422866-222-R5-J1-PDC patient-derived pancreatic adenocarcinoma cell line growth inhibition [GQUAD]
Details: second compound 0.0316 µM; first compound 0.316 µM; hits give low values
Please provide measured viability, T/C for the entries that follow.
Answers are plain numbers, in %.

Cn1ncnc1[C@H]1c2n[nH]c(=O)c3cc(F)cc(c23)N[C@@H]1c1ccc(F)cc1 + CN(C)c1ccc(Nc2c3ccc(NC(=O)CCN4CCCC4)cc3nc3cc(NC(=O)CCN4CCCC4)ccc23)cc1 = 75.1
C=CCn1c(=O)c2cnc(Nc3ccc(N4CCN(C)CC4)cc3)nc2n1-c1cccc(C(C)(C)O)n1 + Cc1[nH]c2ccc(F)cc2c1-c1nc2c3cccnc3c3ncccc3c2[nH]1 = 167

Which value of viability, T/C has been reported for CC1COCCN1c1cc(C2(O)CC3CCC(C2)O3)c2cnn(-c3ccn[nH]3)c2n1 (stereo not drawn) + Cc1cnc(CNC(=O)c2c(=O)c3ccc(N4CCCN(C)CC4)nc3n3c2sc2ccccc23)cn1 in the records?
43.1

====

Tested on: 422866-222-R5-J1-PDC spheroids with HUVEC/MSC, viability
Assay: Anticancer human tumor 422866-222-R5-J1-PDC cell line growth inhibition [GQUAD];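 also: spheroids exposed to compounds for seven days before reading; percent viability relative to DMSO vehicle control taken as 100%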
Settings: second compound 1 µM; first compound 0.00316 µM; hits give low values
Please provide measured viability, T/C for the entries that follow.
Numbers only, in %.

CC[C@@]1(O)C(=O)OCc2c1cc1n(c2=O)Cc2cc3c(CN(C)C)c(O)ccc3nc2-1 + CN(C)c1ccc(Nc2c3ccc(NC(=O)CCN4CCCC4)cc3nc3cc(NC(=O)CCN4CCCC4)ccc23)cc1 = 92.9
Cn1ncnc1[C@H]1c2n[nH]c(=O)c3cc(F)cc(c23)N[C@@H]1c1ccc(F)cc1 + CN(C)c1ccc(Nc2c3ccc(NC(=O)CCN4CCCC4)cc3nc3cc(NC(=O)CCN4CCCC4)ccc23)cc1 = 81.3
CC[C@@]1(O)C(=O)OCc2c1cc1n(c2=O)Cc2cc3c(CN(C)C)c(O)ccc3nc2-1 + Cc1cnc(CNC(=O)c2c(=O)c3ccc(N4CCCN(C)CC4)nc3n3c2sc2ccccc23)cn1 = 81.4
Cc1[nH]c2ccccc2c1CCNCc1ccc(/C=C/C(=O)NO)cc1 + CN(C)c1ccc(Nc2c3ccc(NC(=O)CCN4CCCC4)cc3nc3cc(NC(=O)CCN4CCCC4)ccc23)cc1 = 91.9
CCc1c2c(nc3ccc(O)cc13)-c1cc3c(c(=O)n1C2)COC(=O)[C@]3(O)CC + Cc1cnc(CNC(=O)c2c(=O)c3ccc(N4CCCN(C)CC4)nc3n3c2sc2ccccc23)cn1 = 76

Could I get viability, T/C for every one of these entries?
1. CCc1c2c(nc3ccc(O)cc13)-c1cc3c(c(=O)n1C2)COC(=O)[C@]3(O)CC + CN(C)c1ccc(Nc2c3ccc(NC(=O)CCN4CCCC4)cc3nc3cc(NC(=O)CCN4CCCC4)ccc23)cc1
2. CCc1c2c(nc3ccc(O)cc13)-c1cc3c(c(=O)n1C2)COC(=O)[C@]3(O)CC + Cc1[nH]c2ccc(F)cc2c1-c1nc2c3cccnc3c3ncccc3c2[nH]1
3. CC[C@@]1(O)C(=O)OCc2c1cc1n(c2=O)Cc2cc3c(CN(C)C)c(O)ccc3nc2-1 + Cc1[nH]c2ccc(F)cc2c1-c1nc2c3cccnc3c3ncccc3c2[nH]1
4. Cc1[nH]c2ccccc2c1CCNCc1ccc(/C=C/C(=O)NO)cc1 + Cc1cnc(CNC(=O)c2c(=O)c3ccc(N4CCCN(C)CC4)nc3n3c2sc2ccccc23)cn1
5. Cn1ncnc1[C@H]1c2n[nH]c(=O)c3cc(F)cc(c23)N[C@@H]1c1ccc(F)cc1 + Cc1[nH]c2ccc(F)cc2c1-c1nc2c3cccnc3c3ncccc3c2[nH]1
6. Cn1ncnc1[C@H]1c2n[nH]c(=O)c3cc(F)cc(c23)N[C@@H]1c1ccc(F)cc1 + Cc1cnc(CNC(=O)c2c(=O)c3ccc(N4CCCN(C)CC4)nc3n3c2sc2ccccc23)cn1
7. Cc1[nH]c2ccccc2c1CCNCc1ccc(/C=C/C(=O)NO)cc1 + Cc1[nH]c2ccc(F)cc2c1-c1nc2c3cccnc3c3ncccc3c2[nH]1

1. 43.4
2. 45.6
3. 98.5
4. 72.6
5. 109
6. 77.4
7. 93.9

The measured values listed here are drawn from PubChem BioAssay AID2060511.
